assay: Inhibition of Mycobacterium tuberculosis antigen 85C mycolyltransferase activity using trehalose as substrate measured every 20 sec for 30 mins by 4-methylumbelliferyl butyrate fluorescence assay
recorded-endpoint: pKi
The value called pKi is obtained by taking minus log10 of the concentration in mol/L.

Measured pKi of `CCOC(=O)c1c(NC(=O)SC[C@H]2O[C@@H](O)[C@@H](O)[C@@H]2O)sc2c1CCCC2` : 4.74

###

assay: Inhibition of Mycobacterium tuberculosis antigen 85C acyltransferase activity preincubated with enzyme by UV-vis spectrophotometric analysis
recorded-endpoint: IC50 (mM)
Only the number, expressed in mM, is required.

Measured IC50 of `COC(=O)CC[C@H]1O[C@@H](OC)[C@@H](O)[C@@H]1O` : 25
